system-tested: one or more of HDAC-4, HDAC-5, HDAC-6, HDAC-7, HDAC-8, HDAC-9, HDAC-10 and HDAC-11
assay-text: Inhibition of histone deacetylase enzymatic activity (summary statement over isoforms)
Type: biochemical
experimental-context: Table 3, selected examples; HDAC isoform not given
pIC50: −log10 of the molar value.
readout-type: pIC50

Below, each entry is followed by its recorded pIC50 result.
CCN(CC)c1ccc(C(C(=O)NO)c2ccc3c(c2)CCO3)cc1 (stereo not drawn); > 6.00
O=C(NO)C(c1ccccc1)c1ccc(OCc2ccccc2)cc1 (stereo not drawn); > 6.00
O=C(Nc1cccc(C(C(=O)NO)c2ccccc2)c1)c1cccc(Cl)c1 (stereo not drawn); 4.82 to 6.00
O=C(NO)C(Sc1ccncc1)c1ccccc1 (stereo not drawn); 4.82 to 6.00
O=C(NO)C(c1ccccc1)N1CCN(C(=O)Nc2cccnc2)CC1 (stereo not drawn); 4.82 to 6.00

Prompt: Entry O=C(NO)C(c1ccccc1)c1nnc(-c2ccc(C(F)(F)F)cc2)s1 (stereo not drawn) , system one or more of HDAC-4, HDAC-5, HDAC-6, HDAC-7, HDAC-8, HDAC-9, HDAC-10 and HDAC-11: what pIC50 was measured?
Completion: > 6.00

Prompt: Entry O=C(NO)C(c1ccccc1)N1CCN(c2ccccn2)CC1 (stereo not drawn) , system one or more of HDAC-4, HDAC-5, HDAC-6, HDAC-7, HDAC-8, HDAC-9, HDAC-10 and HDAC-11: what pIC50 was measured?
Completion: > 6.00

Prompt: Entry O=C(NO)C(c1ccccc1)c1cccc(OCCc2ccccc2)c1 (stereo not drawn) , system one or more of HDAC-4, HDAC-5, HDAC-6, HDAC-7, HDAC-8, HDAC-9, HDAC-10 and HDAC-11: what pIC50 was measured?
Completion: 4.82 to 6.00

Prompt: Entry O=C(NO)C(c1ccccc1)c1ccc(C#CCC2CCCC2)cc1 (stereo not drawn) , system one or more of HDAC-4, HDAC-5, HDAC-6, HDAC-7, HDAC-8, HDAC-9, HDAC-10 and HDAC-11: what pIC50 was measured?
Completion: > 6.00

---

system-tested: one or more of HDAC-4, HDAC-5, HDAC-6, HDAC-7, HDAC-8, HDAC-9, HDAC-10 and HDAC-11
assay-text: Inhibition of histone deacetylase enzymatic activity (summary statement over isoforms)
experimental-context: Table 3, selected examples; HDAC isoform not given
readout-type: IC50

O=C(NO)C(c1ccccc1)C1CCN(C(=O)c2ccccc2)CC1 (stereo not shown); 1 to 15 µM

Prompt: Form field: reported IC50 of O=C(NO)C(c1ccc(Cl)cc1)c1ccc(Cl)cc1
Completion: < 1 µM

Prompt: Form field: reported IC50 of CN(C)c1ccc(C(C(=O)NO)c2ccc(-c3ccccc3)cc2)cc1 (stereo not shown)
Completion: < 1 µM

Prompt: Form field: reported IC50 of O=C(NO)C(c1ccccc1)N1CCN(Cc2ccccc2)CC1 (stereo not shown)
Completion: 1 to 15 µM

Prompt: Form field: reported IC50 of O=C(NO)C(c1ccccc1)c1ccc(-c2ccc3[nH]ccc3c2)cc1 (stereo not shown)
Completion: < 1 µM

Prompt: Form field: reported IC50 of COc1ccc(-c2cccc(C(C(=O)NO)c3ccccc3)c2)cc1OC (stereo not shown)
Completion: < 1 µM

All figures here come from patent US9096565B2.
